The values you see were collected from PubChem BioAssay (EPA / NIEHS).

Assay Target: rat Peripheral-type Benzodiazepine Receptor (PBR), Tspo (gene 24230)
Procedure Text: NVS_MP_rPBR: NovaScreen (NVS) Membrane Protein Assay for rat Peripheral-type Benzodiazepine Receptor (PBR) (AID 2283335)
Inconclusive results are not listed. Calls of active or inactive are those of the source. Rule for the calls: active = hit-call score of the fitted dose curve at least 0.9, where 1 is the maximum; inconclusive = response in the unintended direction; inactive = score below 0.9.
Write down one outcome, taken from True for active, False for inactive

Can you look up the reported call for CCN(CC)CCNc1ccc(CNC=O)c2sc3ccc(OC)cc3c(=O)c12 for me?
True

Can you look up the reported call for NC(=O)N1C(=O)C(C(=O)c2cc(Cl)cs2)c2cc(F)c(Cl)cc21 (stereo not given) for me?
True

Can you look up the reported call for CCCCCCCCCCCCc1ccccc1S(=O)(=O)O for me?
True

Can you look up the reported call for Cc1oc(-c2ccccc2)nc1CCOc1ccc(C[C@H](Nc2ccccc2C(=O)c2ccccc2)C(=O)O)cc1 for me?
True

Can you look up the reported call for CCCOc1sc(C(=O)N2CCC(c3cc(CN)ccc3F)CC2)c(C)c1Br for me?
False

----------
Procedure Text: CEETOX_H295R_DOC: CeeTox H295R High-throughput Steroidogenesis Assay for DOC (AID 2283439)
Test Settings: actives raise or lower the signal
Calls of active or inactive are those of the source. The calls were made as follows: active = hit-call score of the fitted dose curve at least 0.9, where 1 is the maximum; inactive = score below 0.9.
Write down one outcome, taken from active, inactive

Can you look up the reported call for CCCCCCCCCCCCCCCS(=O)(=O)Oc1ccccc1 for me?
active

Can you look up the reported call for COc1ccc([N+](=O)[O-])cc1N for me?
active

Can you look up the reported call for Oc1cccc(O)c1 for me?
inactive

Can you look up the reported call for OC1CCC(C2CCCCC2)CC1 (stereo not given) for me?
inactive

Can you look up the reported call for COC(=O)CCCCC(=O)OC for me?
inactive

Can you look up the reported call for CCc1ccc(CCOc2ccc(CC3SC(=O)NC3=O)cc2)nc1 (stereo not given) for me?
active

Can you look up the reported call for Nc1cccc2c(N)cccc12 for me?
active

Can you look up the reported call for CC1=C(/C=C/C(C)=C/C=C/C(C)=C/C(=O)O)C(C)(C)CCC1 for me?
active

Can you look up the reported call for O=C(O)c1ccccc1C(c1ccc(O)cc1)c1ccc(O)cc1 for me?
active

Can you look up the reported call for CCc1nn(C2CCCCC2)c2cc(C3(C#N)CCC(C(=O)O)CC3)ccc12 (stereo not given) for me?
inactive

----------
Assay Target: bovine Estrogen Receptor (ER), ESR1 (gene 407238)
Procedure Text: NVS_NR_bER: NovaScreen (NVS) Nuclear Receptor Binding Assay for bovine Estrogen Receptor (ER) (AID 2283345);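 note: actives lower the bound radioligand count which means they displace the ER ligand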
Records with an inconclusive call do not appear. Calls of active or inactive are those of the source. Rule for the calls: active = hit-call score of the fitted dose curve at least 0.9, where 1 is the maximum; inconclusive = response in the unintended direction; inactive = score below 0.9.
Write down one outcome, taken from active, inactive

Worked cases, answers included:
Molecule	Assay Target	Class Name
CCCOC(=O)c1ccc(O)cc1	bovine Estrogen Receptor (ER), ESR1 (gene 407238)	inactive
CCN(CC)CCNc1ccc(CNC=O)c2sc3ccc(OC)cc3c(=O)c12	bovine Estrogen Receptor (ER), ESR1 (gene 407238)	inactive
OCCC(F)(F)C(F)(F)C(F)(F)C(F)(F)C(F)(F)C(F)(F)C(F)(F)C(F)(F)F	bovine Estrogen Receptor (ER), ESR1 (gene 407238)	inactive
Oc1cc2ccccc2c2ccccc12	bovine Estrogen Receptor (ER), ESR1 (gene 407238)	inactive

Would you kindly look at the next entry?
Can you look up the reported call for CN1CCN(c2ccccc2/C=C2\SCCN(c3ccc(Cl)c(Cl)c3)C2=O)CC1 for me?
inactive
